I'd be grateful if you could share measured PBM 8-mer E-score for these entries.
Test system: muMax20 (Max(13-93) K31hArg/K57hArg, M65Nle)
assay name: PBM 8-mer E-score (E-score (rank enrichment, -0.5 to 0.5)); higher = stronger preferential binding
Over roughly 33,000 sequences, “E-score (rank enrichment, -0.5 to 0.5)” has its median near -0.0068; the highest 2% begin near 0.24. What follows is part of a selection rich in the highest values, with near analogues and random picks from the rest.
Respond using a number only.

Look up and state reported PBM 8-mer E-score for `GCCGTACA`
0.042

Look up and state reported PBM 8-mer E-score for `CAACTGCC`
0.0721

Look up and state reported PBM 8-mer E-score for `ACCAGGTG`
-0.184

Look up and state reported PBM 8-mer E-score for `ATTGCAAA`
0.0872

Where these numbers come from: the supplement of paper PMC12636033
